Assay: Human HepG2 cell viability assay in 384 well format
Type: toxicity, cell-based
Parameters: dose 125 nL, time 70.5 hour; concentration not given beside the values
Conditions: HepG2 cells, read-out: Inhibition
Listing: cytotoxicity at 70.5 h of selected compounds
Respond numerically; units are % and should not be typed.

COMPOUND	cytotoxicity at 70.5 h, %
O=S1(=O)C[C@@H]2[C@H](C1)N(Cc1cc(F)cc(Cl)c1)CCN2CCO	-0.108

Returns the measured cytotoxicity at 70.5 h for the input compound. Input: CCn1cc(CN2CCCCC2CCn2ccnc2C)cc1C#N (stereo not drawn)
-6.87

Now consider `Cn1ccnc1CN1C(=O)CO[C@H]2CN(Cc3ccc(F)c(F)c3)C[C@H]21` and answer again.
8.11

What do you have for `Cn1cc(C(=O)N2CCCN(c3cccnn3)CC2)c2ccccc21` ?
-0.532

Subsequent entry: `Cc1nccnc1N1Cc2cnc(CC(C)C)nc2C1`
-6.3

Another compound: `CC(C)(C)c1nc(CN2CCCN(Cc3cccs3)CC2)no1`
-18.1

Try this compound next: `CCn1cnnc1CNC(=O)N1CCN(c2nc(C)c(C)s2)CC1`
-3.66

Please answer likewise for CC(CC(=O)N1CCC(c2nnc3n2CCC3)CC1)n1cccc1 (stereo not drawn)
10.7

What do you get for CCOCC1CN(S(C)(=O)=O)Cc2ncn(CC3CC3)c21 (stereo not drawn) ?
3.76

For `CCS(=O)(=O)Cc1nc(-c2cnn3c(C)cc(C)nc23)no1` then?
-116

====

Known cytotoxicity at 70.5 h of a selection of compounds
Experiment: Human HepG2 cell viability assay in 384 well format
Format: toxicity, cell-based
Design: dose 125 nL, time 70.5 hour; concentration not given beside the values
Details: HepG2 cells, read-out: Inhibition
Provide only the numeric value, understood in %.

Answered examples (8):
COMPOUND	cytotoxicity at 70.5 h (%)
Cc1noc([C@H]2CC[C@@H]3[C@@H](CCN3S(C)(=O)=O)O2)n1	1.24
Cc1cccc(CN2CCc3ncnc(N4CCOCC4)c3CC2)n1	-1.5
Cc1nc(NC2CCCCC2)cc(C2CCCNC2)n1 (stereo not drawn)	26.4
CCc1c(C)sc2c1c(N)nc(=O)n2CCN1CCCCC1	5.23
O=C(CCc1ccc(OC(F)(F)F)cc1)N1CCCS1(=O)=O	-3.82
Cn1ccnc1CN1CCN(c2ncnc3ccsc23)CC1	-0.211
Cc1ccc(C)c(CC(=O)NC2CCS(=O)(=O)CC2)c1	-10.2
N#CC1(NC(=O)COc2cc(Cl)cc(Cl)c2)CCOCC1	-5.72

What cytotoxicity at 70.5 h value was documented for this compound, CCCn1ccnc1CN1CCCC(O)(CN2CCCC2)C1 (stereo not drawn) ?
-2.63

# repeat for CCc1nnc(C2Cc3ccccc3CN2Cc2cc(C)on2)o1 (stereo not drawn)
-2.94

Ok, now O=C(CC1CCCO1)NCCc1ccc(Br)cc1F (stereo not drawn)
-5.5

Do the same for `COc1c(C)cnc(CN2CCC(C(=O)N(C)C)CC2)c1C` please
-23.8

Now try CC(C)(C)CCN1CCCC(Cn2cc(CCO)nn2)C1 (stereo not drawn) .
-9.34

====

Test: Human HepG2 cell viability assay in 384 well format
Type: toxicity, cell-based
Set-up: dose 125 nL, time 70.5 hour; concentration not given beside the values
Conditions: HepG2 cells, read-out: Inhibition
OBSERVABLE: cytotoxicity at 70.5 h (%)
Provide the reading as a plain figure in %.

A selection of reference data follows.
COMPOUND	cytotoxicity at 70.5 h, %
OC1CCN(Cc2ccc(CNc3ccc(Cl)cn3)cc2)CC1	-0.577
CCN1CCN(C(=O)C(C)N2CCc3cncnc3C2)CC1 (centres undefined)	-4.42
CC(=O)CCC(=O)N1CCC2(CC1)N=C(CCC(C)C)NC2=O	-0.28
CC(C)NC(=O)CS(=O)(=O)c1cc2c(cc1Cl)OCCO2	-3.28
CCC(CC)CN1C[C@@H]2OCCN(Cc3cnn(C)c3)[C@@H]2C1	-3.01
CC(C(=O)N1CCc2sccc2C1)N1CCC(S(N)(=O)=O)CC1 (centres undefined)	-4.51
CC(NC(=O)c1ccc(=O)n(C)c1)c1ccc(OCC2CC2)c(F)c1 (centres undefined)	-11.1
CC(C)N(C)Cc1cncc2c1CCN(C1CCOCC1)C2	-6.55
Cc1nn(C)c2cn(CC(=O)N3CCc4ccccc4C3)nc12	1.13
O=C(c1cnoc1)N1CCC[C@]2(C[C@H](Oc3ncccc3F)CO2)C1	-3.55

Dear colleague, I am looking for the recorded cytotoxicity at 70.5 h of the following compound: `COc1cccc(N2CCN(C(=O)[C@H](O)C3CCCCC3)CC2=O)c1`
-8.15

Please give the result for `Cc1nccn1[C@@H]1CC[C@@H](N(C)S(=O)(=O)c2cccc(F)c2)[C@H]1O` too.
-0.727

Ok, now `Fc1ccc(N2CCCN(c3ccc(Cn4ccnc4)cn3)CC2)cc1`
2.18

Entry `O=C1COc2cc(C(=O)NCc3ccc(Cl)s3)ccc2N1` please
-2.5
